test: Confirmatory qHTS for Inhibitors of ATXN expression; details: ATXN2-luciferase reporter cells, luminescence, 24 h; series mostly up to 11.5 µM; note: nearly all actives have a fitted effect of over 65% in size
In all, about 2,100 compounds went through this assay and about 940 (45%) were called active. About 48% were inconclusive and are not listed. Calls come from the whole dose curve; as a rule, active = well fitted inhibition curve with a large enough effect; inconclusive = small, poorly fitted or top-dose-only effect; inactive = no such curve, though single readings can be large or run the other way. So high a share suggests a set chosen from earlier hits. This is one part of the list.
Hi there, use one of these labels in your reply, thanks! T for active, F for inactive

Which outcome did this test record for the compound `COc1cccc(CNCCc2c[nH]c3ccccc23)c1OCc1ccc(F)cc1` ?
T

Same again, this time with `CCOc1ccc(CCNC(=O)c2ccc(OCc3c(C)noc3C)cc2)cc1OCC`
F

Same again, this time with `COC(=O)Cc1[nH]n(-c2nc3ccccc3s2)c(=O)c1C(C)=Nc1ccc(C)cc1`
F

Same again, this time with Cc1ccc(S(=O)(=O)c2c(N)n(CC3CCOC3)c3nc4ccccc4nc23)cc1 (stereo not drawn)
F

Same again, this time with `CN(C)S(=O)(=O)c1ccc(-c2csc(N/N=C/c3ccco3)n2)cc1`
T

Same again, this time with CCc1ccc(-c2nc(CS(=O)CC(=O)NCc3ccco3)c(C)o2)cc1 (stereo not drawn)
T

Same again, this time with `Cc1nc(N/N=C/c2ccc(O)cc2O)cc(N2CCOCC2)n1`
T

###

assay: Confirmatory qHTS for Inhibitors of ATXN expression; conditions: ATXN2-luciferase reporter cells, luminescence, 24 h; series mostly up to 11.5 µM; note: nearly all actives have a fitted effect of over 65% in size
Out of some 2,100 compounds screened, about 940 (45%) were called active. Inconclusive results (about 48%) are left out. The call rests on the fitted dose curve; in most records, active means well fitted inhibition curve with a large enough effect; inconclusive means small, poorly fitted or top-dose-only effect; inactive means no such curve, though single readings can be large or run the other way. The set was probably picked from earlier hits. This is one part of the list.
Hi there, use one of these labels in your reply, thanks! yes (1) (active), no (0) (inactive)

> print(dat)
                                   molecule    group
1  CCCCCCc1cc2cc(C(=O)Nc3ccccc3)c(=O)oc2cc1O  yes (1)
2  COc1ccc(Cl)cc1C(Nc1cccnc1)c1ccc2cccnc2c1O (stereo not drawn)  yes (1)
3  Oc1c(C(Nc2cccc(C(F)(F)F)c2)c2cccnc2)ccc2cccnc12 (stereo not drawn)  yes (1)

Which outcome did this test record for the molecule `O=S(=O)(c1ccc2nc(COc3ccc(Cl)cc3Cl)[nH]c2c1)N1CCOCC1` ?
no (0)

Same again, this time with `OC[C@@H]1[C@@H](c2ccc(F)cc2)C(c2ccccc2)=NN1c1ccccc1`
no (0)

###

assay: Confirmatory qHTS for Inhibitors of ATXN expression; details: ATXN2-luciferase reporter cells, luminescence, 24 h; series mostly up to 11.5 µM; note: nearly all actives have a fitted effect of over 65% in size
Screen size: about 2,100 compounds; about 940 (45%) were called active. Roughly 48% stayed inconclusive and do not appear here. Calls come from the whole dose curve; as a rule, active = well fitted inhibition curve with a large enough effect; inconclusive = small, poorly fitted or top-dose-only effect; inactive = no such curve, though single readings can be large or run the other way. So high a share suggests a set chosen from earlier hits. The list shows a part of the results.
Hi there, use one of these labels in your reply, thanks! 1 (active), 0 (inactive)

Would you please look over these solved cases?
> print(dat)
                                   molecule  group
1      C/C(=N\NC(=O)c1cccc2ccccc12)c1ccccn1      1
2  Cc1nc(C(F)(F)F)c(C(=O)N/N=C(\N)c2ccccn2)s1      1
3  COc1ccc(CC2C(=O)NC(C)C(=O)N(C)C3Cc4ccc(cc4)Oc4cc(ccc4O)CC(C(=O)NC(C)C(=O)NC(C)C(=O)N2C)N(C)C3=O)cc1 (centres undefined)      1
4  N=c1n(CCN2CCCCC2)c2ccccc2n1CC(O)c1ccc(Cl)c(Cl)c1 (centres undefined)      1
5       CCn1c2ccccc2c2cc(/C=N/n3cnnc3)ccc21      1

Which outcome did this test record for the molecule `COc1ccc(-c2noc(CCCC(=O)NC3CCCC3)n2)cc1` ?
1

Same again, this time with `CC(C)n1c(NCc2cc(Cl)ccc2O)nc2ccccc21`
0

Same again, this time with `Cc1ccc(-c2noc(CCCC(=O)NC3CCCC3)n2)cc1`
1

Same again, this time with `CN(C)c1cc[n+](CC(=O)c2ccc(-c3ccccc3)cc2)cc1`
1

###

Experiment: Confirmatory qHTS for Inhibitors of ATXN expression; note: nearly all actives have a fitted effect of over 65% in size
Settings: ATXN2-luciferase reporter cells, luminescence, 24 h; series mostly up to 11.5 µM
Text: PI: Daniel Scoles Ph.D. University of Utah School of Medicine, Salt Lake City, Utah MLPCN Grant: NS073009 Spinocerebellar ataxia type 2 (SCA2) is a multisystem neurodegenerative disease caused by a dominantly acting mutation leading to expansion of a polyQ domain in the ataxin-2 protein (ATXN2). SCA2 patients develop progressive ataxia and later lose function in other neuronal systems. […] Here we describe a 5-7 dose quantitative high thoroughput screen (qHTS) for compounds lowering ATXN2 expression. […]
Screen size: about 2,100 compounds; about 940 (45%) were called active. Roughly 48% stayed inconclusive and do not appear here. Calls come from the whole dose curve; as a rule, active = well fitted inhibition curve with a large enough effect; inconclusive = small, poorly fitted or top-dose-only effect; inactive = no such curve, though single readings can be large or run the other way. The set was probably picked from earlier hits. Some of the results follow.
Hi there, use one of these labels in your reply, thanks! active, inactive

Would you please look over these solved cases?
> print(dat)
                                   compound     group
1  CCCC/C(C)=N/NC(=O)c1cn(-c2ccccc2)nc1-c1ccccc1  inactive
2        CCOc1ccc(Nc2c3ccccc3nc3ccccc23)cc1    active
3  COc1cc(OC)cc(-c2cc3nc(C)c(CCC(=O)NCc4ccccc4)c(C)n3n2)c1    active
4  Oc1ccc(C[C@@H]2CNCCN2CCc2cc(C(F)(F)F)cc(C(F)(F)F)c2)cc1    active
5      COc1ccc(Nc2nc(N3CCCC3)c3ccccc3n2)cc1    active

Which outcome did this test record for the compound `CC(C)(C)c1cc(C(=O)N/N=C/c2ccc([N+](=O)[O-])s2)n[nH]1` ?
active

Same again, this time with `Oc1c(CN2CCN(c3ccccc3)CC2)cc(Br)c2cccnc12`
active

Same again, this time with `CC1(C)Cc2c(c(N3CCOCC3)nc3sc4c(NN)ncnc4c23)CS1`
active

###

assay: Confirmatory qHTS for Inhibitors of ATXN expression; details: ATXN2-luciferase reporter cells, luminescence, 24 h; series mostly up to 11.5 µM; note: nearly all actives have a fitted effect of over 65% in size; note: potency is the fitted concentration of half-maximal effect
Screen size: about 2,100 compounds; about 940 (45%) were called active. About 48% were inconclusive and are not listed. So high a share suggests a set chosen from earlier hits. The list shows a part of the results.
measurement_kind: Potency

> print(dat)
                                   compound   recorded.result
1  O=C1c2ccccc2NC(c2ccc(-c3cccc([N+](=O)[O-])c3)o2)N1O (stereo not drawn)  15.8 µM (active)
2  Cc1c(N=C2N=C(NC(=O)Nc3ccc(Cl)cc3)c3ccccc32)c(=O)n(-c2ccccc2)n1C          inactive
3  CCOCCn1ccc2c(OCC(=O)Nc3ccc(OC)c(OC)c3)cccc2c1=O          inactive
4  COc1ccc(CC(=O)Nc2nc(-c3ccc(F)c(F)c3)cs2)cc1OC  4.47 µM (active)
5  O=C(Nc1nc(-c2ccc(F)c(F)c2)cs1)Nc1ccc(F)cc1F  1.41 µM (active)
6  O=C(Cn1cnc([N+](=O)[O-])c1)Nc1cc(Oc2ccc(Cl)cc2Cl)cc([N+](=O)[O-])c1  2.82 µM (active)

Request the reported Potency associated with `COc1ccccc1NC(=S)NC(=O)c1ccc(Cn2cc(Br)cn2)cc1`
inactive

Same again, this time with `COC(=O)c1ccc(/C=C2/SC(=S)N(CCCC(=O)Nc3ccccn3)C2=O)cc1`
14.1 µM (active)

Same again, this time with COC(=O)C(Cc1ccc(O)cc1)NC(=O)C(C)Oc1ccccc1 (stereo not drawn)
inactive

Same again, this time with `COc1cc(OC)c(OC)cc1/C=C1\CCC/C(=C\c2cc(OC)c(OC)cc2OC)C1=O`
3.98 µM (active)

Same again, this time with `CCc1ccc(NC(=O)COc2ccc(/C=C(/C#N)c3nc4ccccc4[nH]3)cc2OC)cc1`
3.55 µM (active)

Same again, this time with `O=C(CCCN1C(=O)/C(=C/c2ccccc2Cl)SC1=S)Nc1ccccn1`
11.2 µM (active)

Same again, this time with `COCCNc1nc(-c2cc(C)n(CCc3ccc(OC)cc3)c2C)cs1`
inactive

###

Assay: Confirmatory qHTS for Inhibitors of ATXN expression; note: nearly all actives have a fitted effect of over 65% in size
Details: ATXN2-luciferase reporter cells, luminescence, 24 h; series mostly up to 11.5 µM
From the text: PI: Daniel Scoles Ph.D. University of Utah School of Medicine, Salt Lake City, Utah MLPCN Grant: NS073009 Spinocerebellar ataxia type 2 (SCA2) is a multisystem neurodegenerative disease caused by a dominantly acting mutation leading to expansion of a polyQ domain in the ataxin-2 protein (ATXN2). SCA2 patients develop progressive ataxia and later lose function in other neuronal systems. […] Here we describe a 5-7 dose quantitative high thoroughput screen (qHTS) for compounds lowering ATXN2 expression. […]
In all, about 2,100 compounds went through this assay and about 940 (45%) were called active. Inconclusive results (about 48%) are left out. Calls come from the whole dose curve; as a rule, active = well fitted inhibition curve with a large enough effect; inconclusive = small, poorly fitted or top-dose-only effect; inactive = no such curve, though single readings can be large or run the other way. So high a share suggests a set chosen from earlier hits. The list shows a part of the results.
Hi there, use one of these labels in your reply, thanks! class 1 = active, class 0 = inactive

Would you please look over these solved cases?
> print(dat)
                              smiles.string    group
1  Cc1cccc(NC(=O)c2cc(-c3ccccn3)nc3ccccc23)c1C  class 1
2  CC(=O)c1sc(C(C)(C)C)cc1NC(=O)/C=C/C(=O)O  class 1
3  COc1cccc(C(=O)Nc2nc(-c3ccc(S(=O)(=O)N4CCOCC4)cc3)cs2)c1  class 1
4  COc1cccc(OC)c1C(=O)OCC(=O)NC(=O)NCc1ccccc1  class 0
5  O=C(Nc1nc(-c2ccccn2)cs1)c1ccc(F)c(S(=O)(=O)N2CCOCC2)c1  class 1

Which outcome did this test record for the compound `Cc1nc2ccc(NC(=O)c3ccc(S(=O)(=O)N(C)c4ccccc4)cc3)cc2s1` ?
class 1
